For each record, write down the corresponding viability, T/C.
Tested on: 485368-065-R4-J2-PDC spheroids with HUVEC/MSC, viability;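 further: spheroids exposed to compounds for seven days; 100% = DMSO vehicle control wells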
Test: Anticancer human tumor 485368-065-R4-J2-PDC patient-derived pancreatic carcinoma cell line growth inhibition [CLK]
Conditions: second compound 0.1 µM; first compound 0.0316 µM; active compounds read low
Numbers only, in %.

Here are 8 compounds together with their reported answers.
{"compound": "Nc1ccccc1NC(=O)c1ccc(CNC(=O)OCc2cccnc2)cc1 + CN1CCN(c2cc(C(=O)Nc3cc4cc(-c5cnn(C)c5)ccc4cn3)ccn2)CC1", "subjectOfTest": "485368-065-R4-J2-PDC spheroids with HUVEC/MSC, viability", "measured": 109}
{"compound": "COC1C=CCC(C)C(C)S(=O)(=O)NC(=O)c2ccc3c(c2)N(CC2CCC21)CC1(CCCc2cc(Cl)ccc21)CO3 (centres undefined) + CN1CCN(c2cc(C(=O)Nc3cc4cc(-c5cnn(C)c5)ccc4cn3)ccn2)CC1", "subjectOfTest": "485368-065-R4-J2-PDC spheroids with HUVEC/MSC, viability", "measured": 117}
{"compound": "CC(Nc1ccc2c(c1)OCCn1cc(N3C(=O)OCC3C(F)F)nc1-2)C(N)=O (centres undefined) + CN1CCN(c2cc(C(=O)Nc3cc4cc(-c5cnn(C)c5)ccc4cn3)ccn2)CC1", "subjectOfTest": "485368-065-R4-J2-PDC spheroids with HUVEC/MSC, viability", "measured": 98.7}
{"compound": "Nc1ccn(C2OC(CO)C(O)C2(F)F)c(=O)n1 (centres undefined) + CN1CCN(c2cc(C(=O)Nc3cc4cc(-c5cnn(C)c5)ccc4cn3)ccn2)CC1", "subjectOfTest": "485368-065-R4-J2-PDC spheroids with HUVEC/MSC, viability", "measured": 39.2}
{"compound": "Cn1ncnc1[C@H]1c2n[nH]c(=O)c3cc(F)cc(c23)N[C@@H]1c1ccc(F)cc1 + CNC(=O)c1ccc(Nc2nc(OC3CCCC3)c3c(-c4ccc5nc(C)oc5c4)c[nH]c3n2)c(OC)c1", "subjectOfTest": "485368-065-R4-J2-PDC spheroids with HUVEC/MSC, viability", "measured": 89.7}
{"compound": "O=C(c1cc(Cc2n[nH]c(=O)c3ccccc23)ccc1F)N1CCN(C(=O)C2CC2)CC1 + CNC(=O)c1ccc(Nc2nc(OC3CCCC3)c3c(-c4ccc5nc(C)oc5c4)c[nH]c3n2)c(OC)c1", "subjectOfTest": "485368-065-R4-J2-PDC spheroids with HUVEC/MSC, viability", "measured": 97.5}
{"compound": "C=C(F)C(=O)N1CCN(c2nc(OCC3CCCN3C)nc3c2CCN(c2cccc4cccc(Cl)c24)C3)CC1CC#N (centres undefined) + CNC(=O)c1ccc(Nc2nc(OC3CCCC3)c3c(-c4ccc5nc(C)oc5c4)c[nH]c3n2)c(OC)c1", "subjectOfTest": "485368-065-R4-J2-PDC spheroids with HUVEC/MSC, viability", "measured": 98.2}
{"compound": "Cn1ncnc1[C@H]1c2n[nH]c(=O)c3cc(F)cc(c23)N[C@@H]1c1ccc(F)cc1 + CN1CCN(c2cc(C(=O)Nc3cc4cc(-c5cnn(C)c5)ccc4cn3)ccn2)CC1", "subjectOfTest": "485368-065-R4-J2-PDC spheroids with HUVEC/MSC, viability", "measured": 96.6}

List the reported viability, T/C of each compound below.
1. C#Cc1c(F)ccc2cc(O)cc(-c3ncc4c(N5CC6CCC(C5)N6)nc(OCC56CCCN5CC(F)C6)nc4c3F)c12 (centres undefined) + CNC(=O)c1ccc(Nc2nc(OC3CCCC3)c3c(-c4ccc5nc(C)oc5c4)c[nH]c3n2)c(OC)c1
2. CC1(C)CCC(CN2CCN(c3ccc(C(=O)NS(=O)(=O)c4ccc(NCC5CCOCC5)c([N+](=O)[O-])c4)c(Oc4cnc5[nH]ccc5c4)c3)CC2)=C(c2ccc(Cl)cc2)C1 + CN1CCN(c2cc(C(=O)Nc3cc4cc(-c5cnn(C)c5)ccc4cn3)ccn2)CC1
3. COc1ccc([C@@H](O)c2cc(-c3ncnc4cc(N5CCOCC5)ccc34)c(F)cc2Cl)nn1 + CN1CCN(c2cc(C(=O)Nc3cc4cc(-c5cnn(C)c5)ccc4cn3)ccn2)CC1
4. C=CC(=O)N1CCN(c2nc(=O)n(-c3c(C)ccnc3C(C)C)c3nc(-c4c(O)cccc4F)c(F)cc23)C(C)C1 (centres undefined) + CNC(=O)c1ccc(Nc2nc(OC3CCCC3)c3c(-c4ccc5nc(C)oc5c4)c[nH]c3n2)c(OC)c1

Resp:
1: 96.1; 2: 113; 3: 114; 4: 105

List the reported viability, T/C of each compound below.
1. C=CC(=O)N1CCN(c2nc(=O)n(-c3c(C)ccnc3C(C)C)c3nc(-c4c(O)cccc4F)c(F)cc23)C(C)C1 (centres undefined) + CN1CCN(c2cc(C(=O)Nc3cc4cc(-c5cnn(C)c5)ccc4cn3)ccn2)CC1
2. CC(=O)O[C@H]1C(=O)[C@@]2(C)[C@H]([C@H](OC(=O)c3ccccc3)[C@]3(O)C[C@H](OC(=O)[C@H](O)[C@@H](NC(=O)c4ccccc4)c4ccccc4)C(C)=C1C3(C)C)[C@]1(OC(C)=O)CO[C@@H]1C[C@@H]2O + CNC(=O)c1ccc(Nc2nc(OC3CCCC3)c3c(-c4ccc5nc(C)oc5c4)c[nH]c3n2)c(OC)c1

Resp:
1: 96.7; 2: 59.1

These data points were gathered from PubChem BioAssay AID2060617.
